biological target: human glucagon receptor (human, UniProt P47871 26-477); assay: cell-based or functional assay
Sequence (P47871 26-477): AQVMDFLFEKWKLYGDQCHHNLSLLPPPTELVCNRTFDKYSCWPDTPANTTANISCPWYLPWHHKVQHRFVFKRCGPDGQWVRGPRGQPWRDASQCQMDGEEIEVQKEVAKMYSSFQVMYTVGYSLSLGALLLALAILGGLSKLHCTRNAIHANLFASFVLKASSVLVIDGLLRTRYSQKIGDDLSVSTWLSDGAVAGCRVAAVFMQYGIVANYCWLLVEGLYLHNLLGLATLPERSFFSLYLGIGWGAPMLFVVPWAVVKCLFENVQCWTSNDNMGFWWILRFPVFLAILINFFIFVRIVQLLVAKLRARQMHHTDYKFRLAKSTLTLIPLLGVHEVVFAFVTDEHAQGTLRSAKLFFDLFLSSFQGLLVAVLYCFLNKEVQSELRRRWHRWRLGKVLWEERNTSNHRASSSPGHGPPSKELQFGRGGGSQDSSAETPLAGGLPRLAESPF
*1 amine or outer side, *2 acyl side, *3 side chain or, on linkers, in order; H or OH if unused. Bridges are numbered along the chain shown (N, C = ends). Where no end group is shown, it is not given here. [ ]: non-standard residue; d: D form. γGlu = O=C(O)[C@H](CCC(=O)[*:2])N[*:1]; oxa12‑cholesterol = not defined here

BINDER	hGCGR + 20% plasma EC50, pM
HSQGTFTSDKSKYLDSRRAQDFVQWLMNTK (D-Ser at position 2; Lys(γE-γE-palmitoyl) at position 10; C-terminal amide) [OXM409]	100
H[dS]QGTFTSDYSKYLDERRAKDFVQWLMNTK[γGlu][γGlu]C(oxa12‑cholesterol)-OH (lactam 16-20; reading uncertain) [OXM392]	300
HXQGTFTSDYSKYLDSRRAQDFVQWLMNTKEEC (Aib at position 2; gamma-glutamic acid at positions 31 and 32; C10 = Cys(oxa12-cholesterol) at position 33; C-terminal COOH) [OXM400]	800
